For each of the molecules below, state its melting point.

Reported melting point for CCCc1cc(C(O)(CC)CC)ccc1-c1cc(CCc2ccc(CO)c(CO)c2)ccc1C was 76 °C

Documented melting point of CC1(C)CC(O)CC(C)(C)N1Cc1ccc(CN2C(C)(C)CC(O)CC2(C)C)cc1 : 237 to 239 °C

The measured melting point associated with Cn1nnc2ccc(CNNc3ccc(Cl)cc3)cc21 reads 96 °C

molecule Cc1ccc(-c2cn(C)cc(-c3cccc(C(F)(F)F)c3)c2=O)cc1 , melting point observed: 154 to 156 °C

Measured melting point of CN1C(=O)C(NC(=O)Nc2cccc([N+](=O)[O-])c2)N=C(c2ccccc2)c2ccccc21 (stereo not drawn) : 288 to 289 °C

melting point reported for this molecule C=C(C)c1csc(SC)c1 : 71 to 73 °C

The value of melting point measured for the molecule CC(C)NC(=O)N1CCC(O[N+](=O)[O-])CC1 turned out to be 93 to 95 °C

// recorded melting point for COc1ccc(CNC=C2C(=O)Nc3cc(OC)c(OC)cc32)cc1OC : 198 to 200 °C

###

What melting point was measured for each of the following?

melting point reading for O=C(Nc1cccc(C(=O)Nc2nnn[nH]2)c1)NC1N=C(c2ccccc2F)c2ccccc2N(CC(=O)N2CC3CCC(CC3)C2)C1=O (racemic) : 193 to 196 °C

Please fill in: melting point reported for CCOC(=O)C(C(=O)C(C)C)C(CC(=O)C(C)(C)C)c1ccc(F)cc1 (stereo unspecified) = 80 to 89 °C

So, Cn1c(=O)n(-c2cc(Cl)cc(Cl)c2)c(=O)n1C ? Its melting point was 209 to 211 °C

Reported melting point of O=C1CC(c2ccccc2)=Nc2ccccc2N1Cc1ccccc1 : 122 to 123 °C

So for O=C(O)C1CCCCC1n1nc(-c2c(-c3ccccc3)nn3ccccc23)ccc1=O (stereo unspecified) , the logged melting point turned out to be 164 °C

Lab note: CN(Cc1cnc(Cl)s1)C(=N)N[N+](=O)[O-] gave melting point of 116 to 117 °C

What the record says about CCOC(=O)Cc1nc(-c2ccc(Cl)cc2)sc1Sc1ccccc1 : melting point is 71 to 73 °C

response.value for O=C1COC(CCOC(=O)c2ccccc2)(c2ccc(F)c(F)c2)CN1 (stereo unspecified) (field: melting point) = 92 °C

Record O=c1[nH]c2cc(Cl)ccc2c(O)c1-c1cccc(Oc2ccccn2)c1 . Reported melting point: 269 to 271 °C

Short answer for CCCCCCCCCCCCC(=O)c1c[nH]c(C(=O)OC)c1 : melting point was 92 to 93 °C

Entry Nc1ccc(C(=O)OC2CCN(Cc3ccccc3)CC2)cn1 ; melting point = 135 to 136 °C

What the record says about O=c1[nH]c2scc(C3CC3)c2[nH]c1=O : melting point is > 250 °C

Entry Cc1cc(C(=O)O)ccc1Cc1cc2cc(C(F)(F)F)ccc2n1S(=O)(=O)c1cccc(C(C)(C)C)c1 , melting point reported as 135 °C

So for COc1ccc(CC(C)NCC(O)c2ccccc2Cl)cc1OC (stereo unspecified) , the logged melting point turned out to be 113 to 114 °C

Recorded melting point (compound CC1=NC(NC(=O)Nc2cccc(C)c2)C(=O)N(CC(=O)N2CCC(N3CCCCC3)CC2)c2c(C)cccc21 (stereo unspecified) ): 214 to 217 °C

Recorded result, Cc1cc(=O)c2c([nH]1)CCOC2 , melting point: > 285 °C

For reference, reported melting point for COc1ccc2c(c1)C(=O)CC1C2CCC2(C)C(O[Si](C)(C)C(C)(C)C)CCC12 (stereo unspecified) stands at 159 to 160 °C

melting point recorded for this compound, CCC(=O)Oc1ccc(/C=C/C=C/C(=O)NCCN2CCC(c3c[nH]c4ccccc34)CC2)cc1OC , is 157 to 158 °C

Briefly, melting point measured for CCCC(=O)c1cnc2ccsc2c1Cl : 78 to 80 °C

Memo: N#Cc1cccc(CSc2nnc(-c3ccnc(NC(=O)CCc4ccccc4)c3)o2)c1 , reported melting point: 153 to 154 °C

Record CCOC(=O)c1cn(-c2nc(N)c(F)cc2F)c2c(F)c(F)c(F)c(N)c2c1=O , field melting point: 225 to 230 °C

###

Would you mind telling me the reported melting point of each entry?

The reported value for CN1Cc2c(-c3nnc(CCl)o3)ncn2-c2ccccc2C1=O in terms of melting point is 221 to 222 °C

melting point for Nc1nccc(-c2c[nH]c3nccc(CCc4ccccc4)c23)n1 is 196 to 198 °C

Entry CC(C)(C)C(O)(COc1ccc(F)cc1)C(C)(F)n1cncn1 (centres undefined) — recorded melting point = 90 to 93 °C

Short answer for N#Cc1cc(Br)c(I)c(Br)c1 : melting point was 170 to 175 °C

###

So I've got a bunch of compounds here, and I need their melting point values.

Data point: O=C(O)C(Cc1ccsc1)N1C(=O)c2ccccc2C1=O (stereo not drawn) ; melting point = 162 to 165 °C

Looking up COc1cc(CC(=O)NCCCc2ccc(C)c(C)c2)ccc1OCCNCCN , I found its melting point recorded as 119 to 120 °C

// Cc1nnc2cc(C(=O)O)cc(Cl)n12 : melting point value = 259 to 260 °C

The compound O=C(O)/C=C/c1cnc(-c2ccc(O)c(C34CC5CC(CC(C5)C3)C4)c2)cn1 showed melting point equal to 70 to 71 °C

Entry under test: O=C(Nc1cccc(Cl)c1C(=O)O)c1ccccc1 . Its melting point was 208 to 210 °C

Input O=C(C=Cc1ccccc1)c1ccc(OCc2ccccc2)cc1O . Output melting point: 116 to 118 °C

Lookup result for Cn1c2c(c3ccccc31)Cc1ccccc1-2 ; measured melting point: 152 °C

Record CC(=O)NCCOc1ccc(-c2ccc(=O)n(Cc3ccc(Cl)cc3F)c2)cc1 , field melting point: 153 °C

###

READOUT_TYPE: melting point

Briefly, melting point measured for Cc1noc(-c2c(C)ncn2C)n1 : 95 °C

Summary for this compound, COc1ccc(C(=O)C2=C(c3ccccc3)c3ccc(OC)cc3S2=O)cc1 (stereo not given) : melting point is 191 to 192 °C

melting point measured on Cc1cc(C)nc(NC(=O)NS(=O)(=O)c2ccccc2C(Cl)Cl)n1 = 195 to 197 °C

The compound listed as N#Cc1cc([N+](=O)[O-])ccc1C=C1C=CN(Cc2ccccc2[N+](=O)[O-])C=C1 shows melting point equal to 193 to 201 °C

response.value for CN(C)C(=N[N+](=O)[O-])NCc1cnc(Cl)s1 (field: melting point) = 155 to 160 °C

Field melting point (entry CCCCCCCCCCCCCCc1ccc(OCC2COC(C)(C)O2)cc1 (stereo not given) ) reads 52 to 53 °C

The compound COc1cn(-c2ccc(N3CCC(F)(F)C3)cc2F)nc(-c2ccnn2-c2ccccc2)c1=O showed melting point equal to 195 to 197 °C

GET /value?item= COc1cccc2c1CN(c1c(F)c(F)c3c(=O)c(C(=O)O)cn(C4CC4)c3c1F)C2 &field=melting point returns > 280 °C

Quick note, melting point for CC(C)c1c(Cl)[nH]c(=O)[nH]c1=O landed at 250 to 251 °C

melting point measured on O=C(NCCSc1ccccc1)n1cc(F)c(=O)[nH]c1=O = 130 to 133 °C

###

For each of the molecules below, state its melting point.

# melting point of OC(c1cn(C(c2ccccc2)(c2ccccc2)c2ccccc2)cn1)c1cc(Cl)cc2c1OCOC2 (centres undefined) = 233 to 235 °C

Record COc1cc(-c2ccc(O)c(C3(C)CCCCC3)c2)cc(CC2SC(N(C)C)=NC2=O)c1OC (centres undefined) , field melting point: 187 to 188 °C

Fc1cc2c(c(-c3c(Cl)cccc3Cl)c1)OC(CNC1CCC1)C2 (centres undefined) yielded melting point of 128 to 130 °C

According to the records, this molecule COc1cc2cc3c(Nc4ccc(Sc5nccn5C)c(Cl)c4)c(C#N)cnc3cc2cc1OCCCN1CCOCC1 displays melting point of 230 to 235 °C

Record CC(C)(C)OC(=O)N[C@@H]1C(=O)N(C(=O)C(=O)OC(C)(C)C)[C@@H]1CCC(=O)CO[Si](C)(C)C(C)(C)C . Reported melting point: 102 to 103 °C

Form field melting point, entry O=c1ccc(S(=O)(=O)c2cc3ccccc3s2)n[nH]1 : 209 to 210 °C

Reported melting point of CCOC(=O)c1cn(-c2ncns2)c2cc(F)c(F)cc2c1=O : 149 to 152 °C

Notebook: O=c1[nH]c2ccc(S(=O)(=O)O)cc2[nH]c1=O , melting point read as > 300 °C

Lab note: CCCCCCCOc1cc2c(cc1C(=O)c1ccc(C(=O)O)cc1)C(C)(C)CCC2(C)C gave melting point of 154 to 158 °C

Form field melting point, entry Cc1cc(C)c(S(=O)(=O)NCC2CCN(S(=O)(=O)c3c(C)cc(C)cc3C)CC2)c(C)c1 : 202 to 204 °C

Looking up c1ccc(CN(Cc2ccccc2)c2nccc(-c3ccc(-c4ccc(N(c5ccccc5)c5ccccc5)cc4)cc3)n2)cc1 , I found its melting point recorded as 164 to 165 °C

Record CC(C)CC1CCCCc2c1oc(=O)c(C(c1ccccc1)C1CC1)c2O (centres undefined) . Reported melting point: 164 to 167 °C

Sure, the documented melting point for CC(=O)C(=[N+]=[N-])S(=O)(=O)C(C)C is 53 to 55 °C

Field melting point (entry C[C@@H](OS(C)(=O)=O)C(=O)N1C(=O)N(C)C[C@H]1C(=O)OCc1ccccc1 ) reads 98 to 102 °C

Lab note: CCCCNC(=O)NS(=O)(=O)c1c(C(=O)OC)cnn1C gave melting point of 88 to 90 °C

The value of melting point measured for the molecule N#CC(N=C(c1ccccc1)c1ccccc1)c1ncc(C(F)(F)F)cc1Cl (centres undefined) turned out to be 105 to 108 °C

Please fill in: melting point reported for O=C(O)c1cc(Cl)c(F)c(Cl)c1F = 179 °C

Reported melting point ( COc1cc2c(C)c(C#N)cnc2cc1OCc1cccnc1 ) = 206 to 210 °C

The molecule listed as COc1cc(Nc2c([N+](=O)[O-])ccc(Cl)c2C(=O)O)cc(OC)c1 shows melting point equal to 174 to 177 °C
